# MC4R selectivity vs MC1R annotations
target under test: human MC1R (Homo sapiens, UniProt Q01726)
Construct: expressed in transfected cells; host or cells: HEK-293 cells stably expressing hMC1R and the GScAMP22F cAMP sensor
Sequence (Q01726 whole entry): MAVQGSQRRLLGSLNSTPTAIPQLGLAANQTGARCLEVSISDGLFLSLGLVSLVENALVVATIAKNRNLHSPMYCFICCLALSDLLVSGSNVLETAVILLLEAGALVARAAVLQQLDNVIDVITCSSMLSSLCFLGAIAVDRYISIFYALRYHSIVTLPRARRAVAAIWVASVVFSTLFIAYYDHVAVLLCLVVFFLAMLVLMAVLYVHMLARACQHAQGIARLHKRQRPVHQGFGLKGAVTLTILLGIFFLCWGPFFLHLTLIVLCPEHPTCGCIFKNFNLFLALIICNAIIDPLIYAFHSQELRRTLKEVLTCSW
protocol details: split-luciferase cAMP sensor assay, agonist mode, hMC1R
Type: cell-based
assay conditions: MC4R versus MC1R
Positions of bridges follow the written chain, without caps; N, C: chain ends. Non-standard residues stand in square brackets, D forms with d. Residues, ends and D or L forms follow the SMILES beside them. Nle = CCCC[C@H](N)C(=O)O
readout type: MC4R selectivity vs MC1R

- molecule: "CCCC[C@H](NC(=O)[C@H](CCCNC(=N)N)NC(C)=O)C(=O)N[C@H]1CSSC[C@@H](C(N)=O)NC(=O)[C@H](Cc2ccccc2)NC(=O)[C@H](CCCNC(=N)N)NC(=O)[C@@H](Cc2ccc(OC)cc2)NC(=O)[C@H](CCCNC(=N)N)NC1=O [CTX-1624] (Ac-R[Nle]CR[dY](Me)RFC-NH2; disulfide 3-8 (inferred))"
  reading: 0.15
- molecule: "CC(=O)N[C@@H](CCCNC(=N)N)C(=O)N[C@H]1CSSC[C@@H](C(N)=O)NC(=O)[C@@H](Cc2c[nH]c3ccccc23)NC(=O)[C@H](CCCNC(=N)N)NC(=O)[C@@H](Cc2ccccc2)NC(=O)[C@H](CCCNC(=N)N)NC(=O)[C@@H](C)NC1=O [CTX-1263] (Ac-RC[dA]R[dF]R[dW]C-NH2; disulfide 2-8)"
  reading: 1.73
